Sourced from ChEMBL document CHEMBL4340536

# STUDY_TARGET: Tyrosine-protein kinase JAK1 (Homo sapiens, UniProt P23458)
# Sequence (P23458 whole entry, the tested form may be a part): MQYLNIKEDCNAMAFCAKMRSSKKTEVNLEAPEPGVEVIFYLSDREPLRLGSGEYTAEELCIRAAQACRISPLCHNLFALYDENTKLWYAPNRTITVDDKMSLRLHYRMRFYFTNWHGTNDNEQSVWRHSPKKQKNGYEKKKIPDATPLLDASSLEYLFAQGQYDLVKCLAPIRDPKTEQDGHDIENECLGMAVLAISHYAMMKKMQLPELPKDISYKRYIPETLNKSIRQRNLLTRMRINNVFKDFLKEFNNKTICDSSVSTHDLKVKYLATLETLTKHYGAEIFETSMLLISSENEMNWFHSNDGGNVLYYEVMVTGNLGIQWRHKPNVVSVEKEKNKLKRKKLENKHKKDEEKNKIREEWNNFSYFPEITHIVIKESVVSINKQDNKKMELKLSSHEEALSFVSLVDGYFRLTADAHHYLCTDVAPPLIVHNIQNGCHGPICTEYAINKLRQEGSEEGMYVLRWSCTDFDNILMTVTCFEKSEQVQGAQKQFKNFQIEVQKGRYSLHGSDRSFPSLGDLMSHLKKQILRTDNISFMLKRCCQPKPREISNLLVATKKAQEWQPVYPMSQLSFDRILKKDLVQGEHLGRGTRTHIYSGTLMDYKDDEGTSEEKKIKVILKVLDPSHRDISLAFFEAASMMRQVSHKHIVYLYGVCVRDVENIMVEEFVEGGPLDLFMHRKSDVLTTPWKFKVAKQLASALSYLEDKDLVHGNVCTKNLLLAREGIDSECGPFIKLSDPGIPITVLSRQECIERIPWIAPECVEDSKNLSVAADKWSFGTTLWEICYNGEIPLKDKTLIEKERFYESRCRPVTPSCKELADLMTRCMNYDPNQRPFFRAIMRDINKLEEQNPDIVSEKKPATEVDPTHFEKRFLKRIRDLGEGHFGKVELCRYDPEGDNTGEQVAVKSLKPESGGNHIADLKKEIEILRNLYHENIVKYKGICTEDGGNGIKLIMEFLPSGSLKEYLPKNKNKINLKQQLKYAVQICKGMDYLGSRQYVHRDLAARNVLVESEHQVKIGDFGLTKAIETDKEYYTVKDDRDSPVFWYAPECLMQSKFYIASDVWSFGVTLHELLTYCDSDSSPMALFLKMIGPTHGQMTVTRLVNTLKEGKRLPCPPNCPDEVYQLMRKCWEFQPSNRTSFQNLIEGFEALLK
# MEASUREMENT_DESCRIPTION: Inhibition of human recombinant N-terminal hexahistidine tagged JAK1 JH1 catalytic domain (854 to 1154 residues) expressed in baculovirus infected Sf9 cells using Tyr6 peptide as substrate incubated for 30 secs under shaking condition measured after 1 hr by Z'-LYTE assay
pIC50: −log10 of the molar value.
READOUT: pIC50

Known results for molecules:
1) CC(Oc1cc(-c2cnn(C3CCNCC3)c2)cnc1N)c1cc(F)ccc1Cl (stereo not given) | 6.18
2) CC(Oc1cc(-c2cccc(N3CCNCC3)c2)cnc1N)c1cc(F)ccc1Cl (stereo not given) | 6.92
3) COc1ccc(F)c(Cl)c1C(C)Oc1cc(-c2cnn(C3CCNCC3)c2)cnc1N (stereo not given) | 5.91

a = COc1ccc(F)cc1C(C)Oc1cc(-c2cnn(C3CCNCC3)c2)cnc1N (stereo not given)
b = CC(Oc1cc(-c2cn[nH]c2)cnc1N)c1cc(F)ccc1Cl (stereo not given)
-- ask Smaller pIC50 value? Options are a and b Choose, then provide that item's label.
-- reply a
(a: 5.75, b: 7.09)
